Readings of growth inhibition for the listed compounds
experiment.description: NCI Yeast Anticancer Drug Screen. Data for the bub3 strain (AID 167)
run.conditions: S. cerevisiae bub3 mutant strain, at 5.0 µM (retest, dose inferred, filed as 0.5), stronger effect = higher value
Method: Growth inhibition of yeast strains with defined genetic alterations is measured as a screen for potential anti-cancer activity. Selected strains with alterations in DNA damage repair or cell cycle control were exposed to compounds and growth inhibition was measured relative to vehicle treated controls. The strain used in this assay is bub3
About 79,000 compounds went through this panel and 15% of them were active in at least one assay; those are over-represented in the sample as a whole.
Value expressed in %; do not type the unit.

>>> measured("OC1(c2ccc(Br)cc2)C2CCCCC2C2CCCCC21 (stereo not drawn)")
7
>>> measured("Cc1ccc(C2(c3ccc(F)cc3)OC(=O)c3ccccc32)c(O)c1 (stereo not drawn)")
11

Supply reported growth inhibition belonging to this compound: O=P1(O)c2ccccc2CS(=O)(=O)Cc2ccccc21
16

Quote growth inhibition reported for O=C1C(Br)CCC1(c1ccccc1)c1ccccc1 (stereo not drawn) please.
-10

Using known records, supply growth inhibition for O=c1cc(Cl)c(Cl)nn1-c1ccccc1
4

Annotate the compound C=CCOC(=O)SC(=S)OCN(C)C with its measured growth inhibition.
-1

====

experiment.description: NCI Yeast Anticancer Drug Screen. Data for the bub3 strain (AID 167)
run.conditions: S. cerevisiae bub3 mutant strain, at 50.0 µM (retest, dose inferred, filed as 5.0)
The panel holds about 79,000 compounds, 15% with a hit somewhere; the sample as a whole holds those more often. The source made the active and inactive calls. Cut-off read from the data, not from the text of the source: active = growth inhibition above about 70%; inactive = the rest.
The reply should be one of these categories: 1 (yes) for active, 0 (no) for inactive

>>> cat("CSC1=Nc2ccccc2SC(c2ccccc2)C1c1ccccc1 (centres undefined)")
"0 (no)"

Recorded test call requested for COc1ccc(C2C3C(=O)OCCOC(=O)C3C2c2ccc(OC)c(OC)c2)cc1OC (centres undefined)
0 (no)

Could you kindly confirm the outcome this assay logged for Cc1ccc(NC(=O)CCCC(=O)C(C#N)c2ccccc2C)cc1C (centres undefined) ?
0 (no)

Record request — test call for CCCCCC[C@@H](O)C/C=C\CCCCCCCC(=O)OCCCC
0 (no)

In this assay, the call recorded for S=C1NC2=C(CSC/C2=C\c2ccccc2)C(c2ccccc2)N1 (centres undefined) was what?
1 (yes)

Returns: the outcome recorded for CC(=O)c1c2c(cc3c1CC1(Cc4ccccc4C1=O)C3)CCC2 (centres undefined) in this assay.
1 (yes)

How did this test come out for CCCCCCCCC(=O)NCCCNCCCNC(=O)CCCCCCCC ?
0 (no)

Kindly provide the recorded test outcome for the following molecule: O=c1c(-c2ccccc2)c1-c1ccccc1
1 (yes)

Which outcome did this test record for the molecule Nc1ccccc1O ?
1 (yes)

Please share the test call associated with C=CCNC(=S)N/N=C/c1nccc(-c2ccccc2)c1C .
1 (yes)

Outcome logged for CCN(CC)c1ccc(N=Nc2ccc(Br)cn2)c(O)c1 in this assay:
1 (yes)

Recorded test call requested for CC1(C)C(=O)C(C(Cl)(Cl)Cl)=C(Cl)C(=O)C1(Cl)Cl
1 (yes)

What outcome does the record of this test show for O=c1oc(-c2cc([N+](=O)[O-])cc([N+](=O)[O-])c2Cl)nc2ccccc12 ?
0 (no)

I would be grateful if you could indicate the recorded call for Cc1cc(O)n(Cc2ccccc2)c(=O)c1 .
0 (no)

====

experiment.description: NCI Yeast Anticancer Drug Screen. Data for the mec2-1 strain (AID 157)
run.conditions: S. cerevisiae mec2-1 strain, at 50.0 µM, stronger effect = higher value
About 79,000 compounds went through this panel and 15% of them were active in at least one assay; those are over-represented in the sample as a whole.
Records here are stratified by growth inhibition; strata: L: < 10%; M: ≥ 10% and < 70%; H: ≥ 70%

// known answers, use as guide
>>> cat("NCCC1=CCCCC1")
"H"
>>> cat("Cc1ccc(/C=N/NC(N)=S)cc1C")
"M"
>>> cat("O=c1oc(-c2ccc(Cl)c([N+](=O)[O-])c2)ns1")
"H"
>>> cat("Cc1ccc2c(-c3ccccc3)c3ccccc3cc2c1C")
"M"
>>> cat("CCc1cc2nc3c(=O)[nH]c(=O)nc-3n(CCN(CCO)CCO)c2cc1CC")
"M"

Bin? [O-]/[N+]1=[N+](\[O-])c2ccccc2CCc2ccccc21
L

Classify this compound: C1CCC(C2CCC(N3CCCCC3)CC2)CC1 (configuration not stated)
M

Exercise: read the entry CCSc1c2ccccc2nc2c(OC)ccc(OC)c12 and state which class it falls under.
M

Which bin, given its growth inhibition, does O=C(c1ccccc1)N1CCCCC1 occupy?
L

Lab note: sort COC1OC(=O)CC1C1CC=C2C3CCC4CC(O)CCC4(C)C3CCC21C (configuration not stated) into the matching growth inhibition band.
H

Class? Entry: CC(C)Nc1nc(NC(C)C)c2cnn(-c3ccccc3)c2n1
H

Assign a category based on measured growth inhibition for CCCOC1(C)CC(c2cc(OC)c(OC)c(OC)c2)c2cc3c(cc2O1)OCO3 (configuration not stated) and give only the class name.
L

====

experiment.description: NCI Yeast Anticancer Drug Screen. Data for the mlh1 rad18 strain (AID 175)
run.conditions: S. cerevisiae mlh1 rad18 strain growth inhibition; at 50.0 µM (retest, dose inferred, filed as 5.0)
About 79,000 compounds went through this panel and 15% of them were active in at least one assay; those are over-represented in the sample as a whole. Calls of active or inactive are those of the source. Rule as the data show it: active = growth inhibition above about 70%; inactive = the rest.
Your answer must be one of the following: active, inactive

Look over these answered cases.
>>> cat("C=CCOc1cc(NC(=S)c2sccc2C)ccc1Cl")
"active"
>>> cat("CC(=O)OCC1CC2OC2CC1C (stereo not drawn)")
"inactive"
>>> cat("N=C(N)c1ccc(/C=C/c2ccc(C(=N)N)cc2)cc1")
"active"
>>> cat("CC(C)c1ccc(CN(CCO)Cc2ccc(C(C)C)cc2)cc1")
"active"
>>> cat("COC1=CC(=O)c2ncccc2C1=O")
"active"

Can you look up the reported call for Cc1ccc(/C=C2\CCCC(CN(C)C)C2=O)cc1 (stereo not drawn) for me?
active

In this assay, the call recorded for O=C1OC(=O)c2ccc([N+](=O)[O-])c3cccc1c23 was what?
inactive

How was C#CC(CC)(CC)NC(=O)NC(C)(C)C classified in this test?
inactive

For this molecule, state the assay outcome: c1ccc(NNc2ccc3ccccc3n2)cc1
inactive

Which outcome was assigned to CN1C(=O)OC(C)(c2ccccc2)C1=O (stereo not drawn) in this test?
inactive

Which result was noted for this molecule in the test: O=C(O)c1ccc(CSc2ccc(Cl)cc2)cc1
inactive

# fetch the recorded call for O=C(/C=C\c1cccc2ccccc12)c1ccccn1 here
active

Assay result, entry O=C1C(Cl)=C(c2ccc([N+](=O)[O-])cc2)C(=O)c2c(O)cccc21 — outcome?
active

====

experiment.description: NCI Yeast Anticancer Drug Screen. Data for the sgs1 mgt1 strain (AID 161);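 note: 0% = growth of cultures given vehicle only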
run.conditions: S. cerevisiae sgs1 mgt1 strain, at 50.0 µM, stronger effect = higher value
Description: Growth inhibition of yeast strains with defined genetic alterations is measured as a screen for potential anti-cancer activity. Selected strains with alterations in DNA damage repair or cell cycle control were exposed to compounds and growth inhibition was measured relative to vehicle treated controls. The strain used in this assay is sgs1 mgt1
The panel holds about 79,000 compounds, 15% with a hit somewhere; the sample as a whole holds those more often. Activity calls are given as the source filed them. Cut-off read from the data, not from the text of the source: active = growth inhibition above about 70%; inactive = the rest.
property: growth inhibition

# count of solved cases: 4
>>> measured("Cc1ccc(NC(=S)SCc2ccc(Cl)cc2)cc1C")
"98% (active)"
>>> measured("Cc1ccc[n+](CC(=O)C2CCC3C4CC=C5CC(O)CCC5(C)C4CCC23C)c1 (configuration not stated)")
"98.8% (active)"
>>> measured("CN(/N=C\\c1ccc2ccccc2c1)C1=NCCCN1")
"49.6% (inactive)"
>>> measured("Cc1cc2c(cc1C)[n+]([O-])c(-c1c(Cl)cccc1Cl)c(N)[n+]2[O-]")
"79.4% (active)"

Write down growth inhibition measured for item C[N+](C)(C)CCCCCCCCCCC(=O)N/N=C/c1ccc([N+](=O)[O-])o1
48.9% (inactive)

// fetch growth inhibition given entry N#CCCN(CCC#N)c1ccc(C(Sc2ccccc2)C(NC(=O)c2cc([N+](=O)[O-])ccc2Cl)C(=O)Sc2ccccc2)cc1 (configuration not stated)
51.3% (inactive)

====

experiment.description: NCI Yeast Anticancer Drug Screen. Data for the mlh1 rad18 strain (AID 175)
run.conditions: S. cerevisiae mlh1 rad18 strain growth inhibition; at 5.0 µM (retest, dose inferred, filed as 0.5); stronger effect = higher value
About 79,000 compounds went through this panel and 15% of them were active in at least one assay; those are over-represented in the sample as a whole. The source made the active and inactive calls. Cut-off read from the data, not from the text of the source: active = growth inhibition above about 70%; inactive = the rest.
property: growth inhibition

// below: answered compounds
>>> measured("CC12CCC(=O)C=C1CCC1C2CCC2(C)C(C(=O)Cn3cnc4c(=S)nc[nH]c43)CCC12 (stereo not drawn)")
"-2% (inactive)"
>>> measured("CC1=Cc2cc3[n-]c(cc4nc(cc5[n-]c(cc1n2)cc5C)C(C)=C4CCC(=O)O)c(CCC(=O)O)c3C.[Pd+2]")
"-1% (inactive)"

// next entry
Assign growth inhibition to the following record: O=C(Nc1ccc(NC(=O)Nc2cc(C(=O)Nc3ccc(C4=NCCN4)cc3)ccc2C(=O)Nc2ccc(C3=NCCN3)cc2)cc1)Nc1cc(C(=O)Nc2ccc(C3=NCCN3)cc2)ccc1C(=O)Nc1ccc(C2=NCCN2)cc1
7% (inactive)
